- targetDesc: mUSP18 (Mus musculus)
- Construct: (46-368); His-tag (N); made in house
- Sequence (Q9WTV6 46-368): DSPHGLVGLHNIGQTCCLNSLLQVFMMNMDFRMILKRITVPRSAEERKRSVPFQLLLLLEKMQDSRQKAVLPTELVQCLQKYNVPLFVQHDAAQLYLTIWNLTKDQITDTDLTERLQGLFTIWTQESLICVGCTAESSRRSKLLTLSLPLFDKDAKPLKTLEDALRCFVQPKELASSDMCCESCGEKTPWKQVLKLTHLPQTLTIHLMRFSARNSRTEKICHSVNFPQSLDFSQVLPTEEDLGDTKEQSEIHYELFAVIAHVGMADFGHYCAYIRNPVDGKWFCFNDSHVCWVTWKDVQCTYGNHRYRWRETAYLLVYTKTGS
- assayProtocol: High-throughput screening, ISG15ct-RhoMP, single dose 1.25 µM
- Assay type: biochemical, murine
- conditionContext: mUSP18 %inhibition; carboxylic acid (CA) building block alone; read-out: %inh CA only
measuredQuantity: inhibition at 1.25 µM (%)
Return type: number; implicit unit %.

Take a look at these entries with their results.
{"molecule": "COc1ccccc1-c1nnc(CC(=O)O)o1", "inhibition at 1.25 µM [%]": 23.2}
{"molecule": "O=Cc1cccc(C(=O)O)c1", "inhibition at 1.25 µM [%]": 0.78}
{"molecule": "O=C(O)C1CN(S(=O)(=O)C2CC2)C1", "inhibition at 1.25 µM [%]": 20.5}

# evaluate next
// field: inhibition at 1.25 µM; key: Cc1ccc([1C@@H]2C[1C@H]2C(=O)O)s1 ; value = 5.08
